# measuredTarget: Human FRA on IGROV-1 human ovarian adenocarcinoma cells (human, UniProt P15328 25-234)
# Sequence (P15328 25-234 limits assumed): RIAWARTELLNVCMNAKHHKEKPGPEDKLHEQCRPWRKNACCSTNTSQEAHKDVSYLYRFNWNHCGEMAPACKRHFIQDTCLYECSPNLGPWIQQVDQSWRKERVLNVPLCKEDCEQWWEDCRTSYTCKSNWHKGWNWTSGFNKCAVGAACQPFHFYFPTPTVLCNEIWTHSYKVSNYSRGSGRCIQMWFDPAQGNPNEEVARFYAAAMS
# testName: cell-based or functional assay
recordedEndpoint: Half-Maximal Internalization Constant (min)
Quick reminder: number only, in min, skip the unit.

Given the binder MORAb-003 anti-FRA antibody, lot NB810-10 (positive control; harvested 14 days after initiation of culture) (antibody, human IgG1, kappa, V domains shown, N-linked neutral glycans at Asn299 in SEQ ID NO: 5, also called Pos. ctl; positive control (round 1)) VH: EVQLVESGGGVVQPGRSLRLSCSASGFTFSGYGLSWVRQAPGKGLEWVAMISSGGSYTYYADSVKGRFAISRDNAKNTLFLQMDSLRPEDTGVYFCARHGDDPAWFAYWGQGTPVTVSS VL: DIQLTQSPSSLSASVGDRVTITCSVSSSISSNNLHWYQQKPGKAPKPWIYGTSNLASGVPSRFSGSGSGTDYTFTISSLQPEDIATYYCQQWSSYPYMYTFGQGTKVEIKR , what is its reported Half-Maximal Internalization Constant?
58.4
